Molecular target: HLA-B*08:01
Experiment: IEDB peptide-MHC binding, purified MHC/direct/fluorescence; filed as Kd, often an IC50 or EC50 that approximates it; bounds were set here for any values at or beyond the usual limits of such assays
Settings: source organism: Variola virus
recorded_endpoint: Kd

Problem: Item: YYKDDISYF Test system: HLA-B*08:01 Read-out: Kd Value: ?
Solution: ≥ 20 µM

---

Target: HLA-A*11:01
Experiment: IEDB peptide-MHC binding, purified MHC/competitive/radioactivity; filed as Kd, often an IC50 or EC50 that approximates it; bounds were set here for any values at or beyond the usual limits of such assays
Conditions: source organism: Triticum aestivum
recorded_endpoint: pKd
pKd field: float, defined as -log10 of concentration (mol/L).

Problem: # get_value(readout='pKd', item= VVLQQHNIVH )
Solution: 5.33

---

Target: HLA-A*26:01
Assay: IEDB peptide-MHC binding, purified MHC/direct/fluorescence; filed as Kd, often an IC50 or EC50 that approximates it; bounds were set here for any values at or beyond the usual limits of such assays
Conditions: source organism: Influenza A virus H3N2
pKd: −log10 of the molar value.
recorded_endpoint: pKd

Problem: # get_value(readout='pKd', item= DPKKTGGPI )
Solution: ≤ 4.70

---

Target: HLA-B*18:01
Test: IEDB peptide-MHC binding, purified MHC/direct/fluorescence; filed as Kd, often an IC50 or EC50 that approximates it; bounds were set here for any values at or beyond the usual limits of such assays
Conditions: source organism: Marburg virus - Musoke, Kenya, 1980
recorded_endpoint: Kd

Problem: # get_value(readout='Kd', item= IFDDLQGSL )
Solution: ≥ 20 µM

---

Target: HLA-B*07:02
Experiment: IEDB peptide-MHC binding, purified MHC/direct/fluorescence; filed as Kd, often an IC50 or EC50 that approximates it; bounds were set here for any values at or beyond the usual limits of such assays
Settings: source organism: Orthohantavirus hantanense
recorded_endpoint: Kd (nM)
Respond with the bare value in nM.

Problem: # get_value(readout='Kd', item= AVRTDGSNI )
Solution: 261

---

Biological target: HLA-A*26:01
Test: IEDB peptide-MHC binding, purified MHC/direct/fluorescence; filed as Kd, often an IC50 or EC50 that approximates it; bounds were set here for any values at or beyond the usual limits of such assays
Details: source organism: Mycobacterium tuberculosis
recorded_endpoint: Kd (nM)
Respond with the bare value in nM.

Problem: Item: YVRTNGASY Test system: HLA-A*26:01 Read-out: Kd Value: ?
Solution: 26

---

Target: HLA-A*31:01
Experiment: IEDB peptide-MHC binding, purified MHC/direct/fluorescence; filed as Kd, often an IC50 or EC50 that approximates it; bounds were set here for any values at or beyond the usual limits of such assays
Conditions: source organism: Mammarenavirus machupoense
pKd: −log10 of the molar value.
recorded_endpoint: pKd

Problem: # get_value(readout='pKd', item= FHEFLSSKL )
Solution: ≤ 4.70

---

Target: HLA-A*01:01
Experiment: IEDB peptide-MHC binding, purified MHC/competitive/fluorescence; filed as Kd, often an IC50 or EC50 that approximates it; bounds were set here for any values at or beyond the usual limits of such assays
Details: source organism: Vaccinia virus Copenhagen
recorded_endpoint: Kd

Problem: # get_value(readout='Kd', item= RHDITGFIL )
Solution: ≥ 20 µM

---

The following sequences are shown together with reported pKd values.
Target: HLA-B*44:03
Test: IEDB peptide-MHC binding, purified MHC/competitive/radioactivity; filed as Kd, often an IC50 or EC50 that approximates it; bounds were set here for any values at or beyond the usual limits of such assays
Details: source organism: Dengue virus 4 Philippines/H241/1956
pKd field: float, defined as -log10 of concentration (mol/L).

IESSKNQTW :: 6.80

Please look at the following sequence next.
Problem: Item: EEYVDYMPVM Test system: HLA-B*44:03 Read-out: pKd Value: ?
Solution: 6.06

---

The following sequences are shown together with reported pKd values.
Target: HLA-A*26:01
Assay: IEDB peptide-MHC binding, purified MHC/competitive/radioactivity; filed as Kd, often an IC50 or EC50 that approximates it; bounds were set here for any values at or beyond the usual limits of such assays
Conditions: source organism: SARS coronavirus Tor2
pKd field: float, defined as -log10 of concentration (mol/L).

Some solved entries appear below for comparison.
TVDSSQGSEY :: 5.97
VTYNCCDDDY :: 4.73
IFFASFYYI :: 5.74
ELADTSLSGY :: 7.61
NSKVQIGEY :: 6.63

Please look at the following sequence next.
Problem: Item: ESASKSASVY Test system: HLA-A*26:01 Read-out: pKd Value: ?
Solution: 6.54

---

Target: HLA-A*01:01
Experiment: IEDB peptide-MHC binding, purified MHC/competitive/radioactivity; filed as Kd, often an IC50 or EC50 that approximates it; bounds were set here for any values at or beyond the usual limits of such assays
Settings: source organism: Dengue virus 3 Sri Lanka/1266/2000
recorded_endpoint: Kd (µM)
Respond with the bare value in µM.

Problem: # get_value(readout='Kd', item= VSSVNMVSRL )
Solution: 10.7

---

Biological target: HLA-A*02:01
Assay: IEDB peptide-MHC binding, purified MHC/direct/fluorescence; filed as Kd, often an IC50 or EC50 that approximates it; bounds were set here for any values at or beyond the usual limits of such assays
Details: source organism: Mycobacterium tuberculosis
The following sequences are shown together with reported Kd values.
Respond with the bare value in nM.

EMFGGTPAV :: 2.1

Please look at the following sequence next.
Problem: # get_value(readout='Kd', item= LLWAFAHRQ )
Solution: 551

---

Biological target: HLA-B*46:01
Test: IEDB peptide-MHC binding, purified MHC/competitive/fluorescence; filed as Kd, often an IC50 or EC50 that approximates it; bounds were set here for any values at or beyond the usual limits of such assays
Settings: source organism: Vibrio vulnificus CMCP6
recorded_endpoint: Kd

Problem: # get_value(readout='Kd', item= WLAGFEPSE )
Solution: ≥ 20 µM

---

Biological target: HLA-B*48:01
Assay: IEDB peptide-MHC binding, purified MHC/direct/fluorescence; filed as Kd, often an IC50 or EC50 that approximates it; bounds were set here for any values at or beyond the usual limits of such assays
Settings: source organism: West Nile virus
recorded_endpoint: Kd

Problem: # get_value(readout='Kd', item= FVDVGVSAL )
Solution: ≥ 20 µM

---

Target: HLA-A*24:02
Test: IEDB peptide-MHC binding, purified MHC/direct/fluorescence; filed as Kd, often an IC50 or EC50 that approximates it; bounds were set here for any values at or beyond the usual limits of such assays
Conditions: source organism: Coxiella burnetii
pKd: −log10 of the molar value.
recorded_endpoint: pKd

MTFPVSLEY :: ≤ 4.70

Please look at the following sequence next.
Problem: Item: AISRLRTQK Test system: HLA-A*24:02 Read-out: pKd Value: ?
Solution: ≤ 4.70

---

Target: HLA-B*51:01
Assay: IEDB peptide-MHC binding, purified MHC/direct/fluorescence; filed as Kd, often an IC50 or EC50 that approximates it; bounds were set here for any values at or beyond the usual limits of such assays
Settings: source organism: dengue virus type 4
recorded_endpoint: Kd

Problem: # get_value(readout='Kd', item= ILRNPGFAL )
Solution: ≥ 20 µM

---

Target: HLA-B*18:01
Experiment: IEDB peptide-MHC binding, purified MHC/direct/fluorescence; filed as Kd, often an IC50 or EC50 that approximates it; bounds were set here for any values at or beyond the usual limits of such assays
Settings: source organism: Rickettsia bellii
recorded_endpoint: Kd

Problem: # get_value(readout='Kd', item= NIDPEHLDY )
Solution: ≥ 20 µM

---

Biological target: HLA-A*24:03
Assay: IEDB peptide-MHC binding, purified MHC/competitive/fluorescence; filed as Kd, often an IC50 or EC50 that approximates it; bounds were set here for any values at or beyond the usual limits of such assays
Settings: source organism: Cryptosporidium parvum Iowa II
pKd: −log10 of the molar value.
recorded_endpoint: pKd

Problem: # get_value(readout='pKd', item= RGRKPIFRK )
Solution: ≤ 4.70

---

Target: HLA-C*15:02
Test: IEDB peptide-MHC binding, purified MHC/direct/fluorescence; filed as Kd, often an IC50 or EC50 that approximates it; bounds were set here for any values at or beyond the usual limits of such assays
Conditions: source organism: Influenza A virus (A/81/HO)
recorded_endpoint: Kd

Problem: Item: KMIDGIGRF Test system: HLA-C*15:02 Read-out: Kd Value: ?
Solution: ≥ 20 µM

---

Target: HLA-B*15:01
Assay: IEDB peptide-MHC binding, purified MHC/competitive/fluorescence; filed as Kd, often an IC50 or EC50 that approximates it; bounds were set here for any values at or beyond the usual limits of such assays
Conditions: source organism: Giardia lamblia ATCC 50803
recorded_endpoint: Kd

Problem: # get_value(readout='Kd', item= DEYGPVFVE )
Solution: ≥ 20 µM
